system: DLD1 cells; experiment: viability-based synergy experiment, C1368 and erlotinib, DLD1 cells; format: cell-based; conditions: DLD1 cells, single agent; read-out: IC50, single agent
ASSAY_ENDPOINT: IC50 (µM)
// return numeric value only (unit: µM, not printed)

Lookup result for O=C(Nc1cccc(Nc2nccc(Nc3cccc(C(F)(F)F)c3)n2)c1)C1CC1 ; measured IC50: 2.7

----------
test system: HCT116 cells; experiment: viability-based synergy experiment, C1368 and cetuximab, HCT116 cells; type: cell-based, human; conditions: read-out: IC50 value, drug alone (cetuximab experiment), drug alone
ASSAY_ENDPOINT: pIC50
Conceptually, pIC50 converts a concentration in mol/L into minus its log10.

Lookup result for O=C(Nc1cccc(Nc2nccc(Nc3cccc(C(F)(F)F)c3)n2)c1)C1CC1 [C1368] ; measured pIC50: 5.68
